Origin of measurements: the supplement of paper PMC4862054

Tested on: BT-474
Assay: normalised viability (% of control), CellTiter-Blue; higher = more viable cells (100 = DMSO, 0 = benzethonium chloride kill control)
Settings: incubation time: 72 h
Documented normalised viability across a set of molecules

>  <Molecule>
CC(C)(C)NC(=O)[C@H]1CC[C@H]2[C@@H]3CC[C@H]4NC(=O)C=C[C@]4(C)[C@H]3CC[C@]12C [Finasteride] (1 nM)

>  <normalised viability>
72.8%

$$$$
>  <Molecule>
CC(=O)[C@]1(O)Cc2c(O)c3c(c(O)c2[C@@H](O[C@H]2C[C@H](N)[C@H](O)[C@H](C)O2)C1)C(=O)c1ccccc1C3=O [Idarubicin] (0.1 nM)

>  <normalised viability>
99.8%

$$$$
>  <Molecule>
CCNC(=O)c1noc(-c2cc(C(C)C)c(O)cc2O)c1-c1ccc(CN2CCOCC2)cc1 [NVP-AUY922] (0.1 nM)

>  <normalised viability>
109%

$$$$
